Record form. Attribute: protein stability index. Fill in for each entry.
measurement-description: protein stability index of a GFP-peptide fusion (yeast GPS) (PSI 1-4); higher = more stable; sorted into four equal gates, so the index is relative within each strain
experimental-context: ubr1∆
No unit in the answer, only the number.

Prompt: Provide only the value of recorded protein stability index for SASPHLAPNMQLNGNET [SNF2]
Response: 3.26

Prompt: Provide only the value of recorded protein stability index for VVGVVGYVETPRGLRSL [RPL3]
Response: 2.98

Prompt: Provide only the value of recorded protein stability index for SNTTTQIQFTPLIKKIK [SMC3]
Response: 2.37

Prompt: Provide only the value of recorded protein stability index for EKLLQQDREITNWARTT [MED8]
Response: 2.06

Prompt: Provide only the value of recorded protein stability index for ICGYTRKEGPTIYYVDS [PRE2]
Response: 2.84

Prompt: Provide only the value of recorded protein stability index for KIRITLTSTKVKQLENV [RPS20]
Response: 2.25

Prompt: Provide only the value of recorded protein stability index for RPQKLRASLVPGTVLIL [RPL6A]
Response: 2.45

Prompt: Provide only the value of recorded protein stability index for LIGCIDEAKDFIVSGTA [PUP3]
Response: 3.01

Prompt: Provide only the value of recorded protein stability index for LSKFFFFIFVFNFVLLG [COB]
Response: 1.22

Prompt: Provide only the value of recorded protein stability index for HINSILLARVIQMNNSL [SNF11]
Response: 1.7

Prompt: Provide only the value of recorded protein stability index for VPYVVTHDGRTIRYPDP [RPS4A]
Response: 3.38

Prompt: Provide only the value of recorded protein stability index for TEISGLKNVNKRAFENF [SMC3]
Response: 2.96

Prompt: Provide only the value of recorded protein stability index for PAKVAEEGINKFKKEKF [SRP54]
Response: 3.23

Prompt: Provide only the value of recorded protein stability index for KTIVTGGNGPEDFQQHE [RPO26]
Response: 3.31

Prompt: Provide only the value of recorded protein stability index for GKLVVSQEMVPRYFSEA [SIR3]
Response: 3.21

* * *

measurement-description: protein stability index of a GFP-peptide fusion (yeast GPS) (PSI 1-4); higher = more stable; sorted into four equal gates, so the index is relative within each strain
experimental-context: san1∆
readout-label: protein stability index
No unit in the answer, only the number.

Prompt: Provide only the value of recorded protein stability index for QQQQDLQQQQQVVTTVA [SNF6]
Response: 1.87

Prompt: Provide only the value of recorded protein stability index for PRFLNKQERSKQERLKE [PRP28]
Response: 3.34

Prompt: Provide only the value of recorded protein stability index for GILRRKSESDELQMRSF [RRP4]
Response: 3.18

Prompt: Provide only the value of recorded protein stability index for NSYQPSPFFVLDEVDAA [SMC1]
Response: 2.49

Prompt: Provide only the value of recorded protein stability index for PRRDGERKRKSVRGAIV [RPS6A]
Response: 3.33

Prompt: Provide only the value of recorded protein stability index for NDPSAEVRRAAMLNLIN [YCG1]
Response: 2.72

Prompt: Provide only the value of recorded protein stability index for LARRTDAPFNKVVLKAL [RPL18A]
Response: 1.18

Prompt: Provide only the value of recorded protein stability index for GFEQVKIALGSPIVNVL [RRI2]
Response: 1.48

Prompt: Provide only the value of recorded protein stability index for QQVEGKLSQMILDKIFY [RPN6]
Response: 3.01

Prompt: Provide only the value of recorded protein stability index for PSRRERRREQTTYSVDD [ISW2]
Response: 3.22

Prompt: Provide only the value of recorded protein stability index for QHPFPLAHSQHRCAIRS [SSN2]
Response: 1.51

Prompt: Provide only the value of recorded protein stability index for RPGRIDRKIEFPPPSVA [RPT6]
Response: 3.05

Prompt: Provide only the value of recorded protein stability index for FEENDHPNRVLEHLHST [COR1]
Response: 3

Prompt: Provide only the value of recorded protein stability index for RPHQSRESLIMLLEEQL [MED7]
Response: 1.45

Prompt: Provide only the value of recorded protein stability index for QSQLNVTLSQLVSVTST [MED8]
Response: 1.44

Prompt: Provide only the value of recorded protein stability index for TNDRLNREAATKEVESN [DIS3]
Response: 2.62

Prompt: Provide only the value of recorded protein stability index for EQKGQMAKKEGTPKTDS [MED4]
Response: 3.13

Prompt: Provide only the value of recorded protein stability index for IETLDPALIRPGRIDRK [RPT2]
Response: 2.88

Prompt: Provide only the value of recorded protein stability index for TVAVMSYSGYDIEDALV [RET1]
Response: 1.97

Prompt: Provide only the value of recorded protein stability index for IEQSITKNIPITHRDLH [SSN8]
Response: 2.53

Prompt: Provide only the value of recorded protein stability index for SAVKPRPLKLERGFACI [FAS1]
Response: 2.06

Prompt: Provide only the value of recorded protein stability index for QKDKSDTYKRFKYLLGV [ISW2]
Response: 1.4

Prompt: Provide only the value of recorded protein stability index for KDIIDPKLTSIFERMIE [RPN2]
Response: 2.93

Prompt: Provide only the value of recorded protein stability index for RRVYNRVLETTLVEFET [BRN1]
Response: 2.69

Prompt: Provide only the value of recorded protein stability index for DRMDVDEDESQNIAQSS [HRT1]
Response: 2.21

Prompt: Provide only the value of recorded protein stability index for PGEFVTAIAHSIREQVH [SNF5]
Response: 1.94

Prompt: Provide only the value of recorded protein stability index for QGIVRVYSKQATFLLTD [MCD1]
Response: 2.35

Prompt: Provide only the value of recorded protein stability index for NVVEADLKRFVDESLLS [QCR2]
Response: 3.26

Prompt: Provide only the value of recorded protein stability index for IKQQQQQQQQQNGQQPP [YML103C/NUP188]
Response: 2.48

Prompt: Provide only the value of recorded protein stability index for FNLISNAGTEKEKESKK [YLR335W/NUP2]
Response: 3.44

Prompt: Provide only the value of recorded protein stability index for HKLVFVVRIKGINKIPP [RPL7A]
Response: 1.52
